B1: RTN2 (parent)
chain: SERPLEDLRLRLDHLGWVARGTGS

- Variants of: B1
- EXPERIMENT: protein stability index of a GFP-peptide fusion (GPS, HEK-293T) (PSI 1-6); higher = more stable;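 also: lentivirally expressed fusions sorted by FACS into six bins by GFP to DsRed ratio, PSI derived from sequencing read proportions per bin multiplied by bin number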
- CONDITION_DETAILS: c terminus: a fixed tail appended
Examples of variants with documented protein stability index follow.
Field format: numeric only.

1) S1W | 2.46
2) G21M | 1.96
3) S24M | 1.76
4) G16V | 1.55
5) E6W | 1.62

# next variant below
Which protein stability index value belongs to R9T ?
2.27

Data provenance: the supplement of paper PMC10567573
